These data points were gathered from ChEMBL document CHEMBL3621096.

Molecular target: Collagenase 3 (Homo sapiens, UniProt P45452)
Test: Inhibition of human recombinant MMP13 using 5-FAMTPGPLGL[Dap(DNP)]ARRK(5-TAMRA)-amide as substrate after 45 mins
pIC50: −log10 of the molar value.
value_kind: pIC50

compound_structure=CCN(C(=O)c1ccc(CNc2nc(NCCN3CCN(C)CC3)nc(N3CCc4cc(OC)c(OC)cc4C3)n2)cc1)c1cccc(C)c1 recorded_result="< 5.00"

----------
List of pIC50 values.
Biological target: A disintegrin and metalloproteinase with thrombospondin motifs 4 (Homo sapiens, UniProt O75173)
Sequence (O75173 whole entry): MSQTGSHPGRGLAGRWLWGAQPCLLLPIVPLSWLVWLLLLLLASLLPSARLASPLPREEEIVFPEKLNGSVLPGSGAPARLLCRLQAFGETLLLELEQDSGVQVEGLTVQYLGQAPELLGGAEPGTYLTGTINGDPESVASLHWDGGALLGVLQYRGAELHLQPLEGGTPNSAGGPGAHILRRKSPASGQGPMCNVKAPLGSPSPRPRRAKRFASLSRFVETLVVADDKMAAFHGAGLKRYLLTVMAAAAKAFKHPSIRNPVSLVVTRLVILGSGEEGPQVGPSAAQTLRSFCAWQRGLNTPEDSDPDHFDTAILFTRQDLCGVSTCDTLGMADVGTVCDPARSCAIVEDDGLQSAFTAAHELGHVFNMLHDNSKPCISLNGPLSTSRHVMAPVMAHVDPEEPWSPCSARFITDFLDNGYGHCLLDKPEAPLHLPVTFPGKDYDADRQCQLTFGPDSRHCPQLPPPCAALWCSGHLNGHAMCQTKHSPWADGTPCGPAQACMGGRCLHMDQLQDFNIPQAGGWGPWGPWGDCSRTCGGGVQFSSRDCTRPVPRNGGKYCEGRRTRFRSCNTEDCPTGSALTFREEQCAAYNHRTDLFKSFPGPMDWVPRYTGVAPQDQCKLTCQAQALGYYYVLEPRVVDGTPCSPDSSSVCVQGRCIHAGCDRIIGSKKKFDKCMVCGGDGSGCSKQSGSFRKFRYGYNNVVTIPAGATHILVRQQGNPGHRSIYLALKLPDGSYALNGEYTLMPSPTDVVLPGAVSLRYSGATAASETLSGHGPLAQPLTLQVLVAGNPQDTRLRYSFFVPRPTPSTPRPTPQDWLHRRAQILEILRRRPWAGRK
Assay: Inhibition of recombinant human ADAMTS4 (213 to 575 amino acid residues) using WAAG-3R as substrate preincubated for 15 mins followed by substrate addition measured every 30 secs for 1 hr
pIC50: −log10 of the molar value.
value_kind: pIC50

compound_structure=CCN(C(=O)c1ccc(CNc2nc(NCCN3CCN(C)CC3)nc(N3CCc4ccccc4C3)n2)cc1)c1cccc(C)c1 qual== recorded_result=8.22
compound_structure=CCN(C(=O)c1ccc(CNc2ncnc(NCc3ccc(OC)c(OC)c3)n2)cc1)c1cccc(C)c1 qual== recorded_result=6.80
compound_structure=CCN(C)C(=O)c1ccc(CNc2ncnc(N3CCc4ccccc4C3)n2)cc1 qual== recorded_result=5.77
compound_structure=COc1cc2c(cc1OC)CN(c1nc(NCCN3CCN(C)CC3)nc(NCc3ccccc3)n1)CC2 qual== recorded_result=5.52
compound_structure=COc1cc2c(cc1OC)CN(c1nc(NCCN3CCN(C)CC3)nc(NCc3ccc(C(=O)O)cc3)n1)CC2 qual=< recorded_result=5.00
compound_structure=CCN(C)C(=O)c1ccc(CNc2nc(N3CCN(C)CC3)nc(N3CCc4ccccc4C3)n2)cc1 qual== recorded_result=5.26
compound_structure=CCN(C(=O)c1ccc(CNc2ncnc(N3CCc4ccccc4C3)n2)cc1)c1cccc(C)c1 qual== recorded_result=7.20
compound_structure=CCN(C(=O)c1ccc(CNc2ncnc(N3CCCCC3)n2)cc1)c1cccc(C)c1 qual=< recorded_result=5.00
compound_structure=CCN(C(=O)c1ccc(CNc2nc(NCCN(C)C)nc(N3CCc4cc(OC)c(OC)cc4C3)n2)cc1)c1cccc(C)c1 qual== recorded_result=7.85
compound_structure=CCN(C(=O)c1ccc(CNc2nc(NCc3ccccc3)nc(N3CCc4ccccc4C3)n2)cc1)c1cccc(C)c1 qual== recorded_result=7.21
compound_structure=CCN(C(=O)c1ccc(CNc2nc(Nc3ccccc3)nc(N3CCc4cc(OC)c(OC)cc4C3)n2)cc1)c1cccc(C)c1 qual== recorded_result=6.74
compound_structure=CCN(C(=O)c1ccc(CNc2nc(Cl)nc(N3CCc4cc(OC)c(OC)cc4C3)n2)cc1)c1cccc(C)c1 qual== recorded_result=6.99
compound_structure=CCN(C(=O)c1ccc(CNc2nc(NCCN3CCN(C)CC3)nc(N3CCCc4ccccc43)n2)cc1)c1cccc(C)c1 qual== recorded_result=5.19
compound_structure=CCN(C)C(=O)c1ccc(CNc2nc(N3CCN(C)CC3)nc(N3CCc4cc(OC)c(OC)cc4C3)n2)cc1 qual== recorded_result=5.07
compound_structure=CCN(C)C(=O)c1ccc(CNc2ncnc(N3CCc4cc(OC)c(OC)cc4C3)n2)cc1 qual== recorded_result=5.74
compound_structure=CCN(C)C(=O)c1ccc(CNc2nc(NCCN(C)C)nc(N3CCc4cc(OC)c(OC)cc4C3)n2)cc1 qual== recorded_result=7.09
compound_structure=CCN(C(=O)c1ccc(CNc2nc(NCc3ccccc3)nc(N3CCc4cc(OC)c(OC)cc4C3)n2)cc1)c1cccc(C)c1 qual== recorded_result=7.22
compound_structure=CCN(C)C(=O)c1ccc(CNc2nc(NCCN3CCN(C)CC3)nc(N3CCc4cc(OC)c(OC)cc4C3)n2)cc1 qual== recorded_result=7.19
compound_structure=CCN(C(=O)c1ccc(CNc2ncnc(N3CCc4ccc(F)cc4C3)n2)cc1)c1cccc(C)c1 qual== recorded_result=6.48
compound_structure=CCN(C(=O)c1ccc(CNc2nc(NCCN(C)C)nc(N3CCc4ccccc4C3)n2)cc1)c1cccc(C)c1 qual== recorded_result=8.10
compound_structure=CCN(C)C(=O)c1ccc(CNc2nc(NCCN(C)C)nc(N3CCc4ccccc4C3)n2)cc1 qual== recorded_result=7.37
